Target: Potassium-transporting ATPase (Homo sapiens, UniProt P20648)
Assay: Antisecretory activity evaluated by the inhibition of 14C -AP uptake in isolated rabbit parietal cells stimulated by exogenous histamine
Assay type: functional, Oryctolagus cuniculus
Conditions: target entry is the homologue from another species
property label: pIC50
Kindly note that pIC50 refers to -log10 of the concentration in mol/L and answer with the value alone.

Request: GET /values?readout=pIC50&item= `CCCCN(CCCC)CCCOc1ccc(-c2nc(-c3ccccc3)sc2C)cc1`
Response: 6.57

Request: Would you kindly share the measured pIC50 for `C(=C\c1nc2ccccc2o1)/c1ccc(OCCCCN2CCCCC2)cc1` ?
Response: 6.77

Request: Could you tell me which pIC50 is on file for `Cl.O.c1ccc(-c2nc(-c3ccc(OCCCn4ccnc4)cc3)cs2)cc1` ?
Response: 7.10

Request: # query: pIC50 of entry `CCCCN(CCCC)CCCOc1ccc(/C=C/c2nc3ccccc3o2)cc1`
Response: 6.82

Request: Look up pIC50: `C(=C\c1nc2ccccc2s1)/c1ccc(OCCCn2ccnc2)cc1`
Response: 6.89

Request: For `C(=C\c1nc2ccccc2s1)/c1ccc(OCCCCN2CCCC2)cc1` , what is its reported pIC50?
Response: 6.80

Request: # pIC50 lookup, item `CCCCN(CCCC)CCOc1ccc(/C=C/c2nc3ccccc3o2)cc1`
Response: 6.59

Request: Value lookup for pIC50; key = `CCCCN(CCCC)CCCOc1ccc(-c2csc(-c3ccc(C(F)(F)F)cc3)n2)cc1`
Response: 5.54

Request: Quick one: pIC50 for `CCN(CC)CCCOc1ccc(/C=C/c2nc3ccccc3o2)cc1` ?
Response: 6.49

Request: Recorded pIC50 for `C(=C\c1nc2ccccc2s1)/c1ccc(OCCCN2CCCCC2)cc1` , please?
Response: 6.74

Request: Find the recorded pIC50 belonging to `CCCCN(CCCC)CCCOc1ccc(/C=C/c2nc3cc(Cl)ccc3s2)cc1` and report it.
Response: 6.40

Request: Return reported pIC50; argument: `CCCCN(CCCC)CCCOc1ccc(-c2csc(-c3ccccc3)n2)cc1.Cl`
Response: 6.35

Request: Which pIC50 reading was recorded for the molecule `CCCCN(CCCC)CCCOc1ccc(-c2csc(-c3ccc(C)cc3)n2)cc1` ?
Response: 5.82

Request: Fill in the blank: the reported pIC50 of `CCCCN(CCCC)CCCOc1ccc(-c2csc(-c3cc(OC)cc(OC)c3)n2)cc1` is ____.
Response: 6.59

Request: Given `CCCN(CCC)CCCOc1ccc(/C=C/c2nc3ccccc3o2)cc1` , state its recorded pIC50.
Response: 6.66

====

Target: Potassium-transporting ATPase (Homo sapiens, UniProt P20648)
Assay: Antisecretory activity evaluated by the inhibition of 14C -AP uptake in isolated rabbit parietal cells stimulated by dibutyryl cyclic adenosine 3', 5' -monophosphate (dcAMP)
Type: functional, Oryctolagus cuniculus
Settings: target entry is the homologue from another species
Catalogue of IC50 readings, one per entry.
The number alone won't do; follow it with the unit.

Reference set, count: 5
structure string	system under test	IC50
C(=C\c1nc2ccccc2o1)/c1ccc(OCCCCn2ccnc2)cc1	Potassium-transporting ATPase (Homo sapiens, UniProt P20648)	330 nM
CCCCN(CCCC)CCCOc1ccc(/C=C/c2nc3cc(C)ccc3s2)cc1	Potassium-transporting ATPase (Homo sapiens, UniProt P20648)	530 nM
CCCN(CCC)CCCOc1ccc(/C=C/c2nc3ccccc3o2)cc1	Potassium-transporting ATPase (Homo sapiens, UniProt P20648)	350 nM
CCCCN(CCCC)CCCOc1ccc(-c2csc(-c3ccc(Cl)cc3)n2)cc1	Potassium-transporting ATPase (Homo sapiens, UniProt P20648)	1800 nM
c1cncc(-c2nc(-c3ccc(OCCCn4ccnc4)cc3)cs2)c1	Potassium-transporting ATPase (Homo sapiens, UniProt P20648)	3000 nM

Request: Give the measured IC50 of `CCN(CC)CCCCOc1ccc(/C=C/c2nc3ccccc3s2)cc1` .
Response: 350 nM

Request: I am curious: what IC50 value has been reported for `C(=C\c1nc2ccccc2s1)/c1ccc(OCCCCn2ccnc2)cc1` ?
Response: 260 nM

Request: Item under review: `CCCCN(CCCC)CCCOc1ccc(/C=C/c2nc3cc(Cl)ccc3s2)cc1` . Reported IC50?
Response: 500 nM

Request: Sample `CCCCN(CCCC)CCCCOc1ccc(-c2csc(-c3ccccc3)n2)cc1` — what was its IC50?
Response: 120 nM

====

// log10(IC50) lookup, one value per entry
Molecular target: Potassium-transporting ATPase (Homo sapiens, UniProt P20648)
Test: Antisecretory activity evaluated by the inhibition of 14C -AP uptake in isolated rabbit parietal cells stimulated by exogenous histamine
Format: functional, Oryctolagus cuniculus
Settings: target entry is the homologue from another species
The base-10 logarithm of IC50, taken with IC50 in nM, is what appears here.

structure string	readout value
CCCCN(CCCC)CCCOc1ccc(/C=C/c2nc3ccc(OC)cc3s2)cc1	2.41

Request: Sample `CCCCN(CCCC)CCCOc1ccc(-c2csc(-c3ccc(OC)cc3)n2)cc1` — what was its log10(IC50)?
Response: 2.68

Request: Which value of log10(IC50) has been reported for `CCN(CC)CCCOc1ccc(/C=C/c2nc3ccccc3s2)cc1` in the records?
Response: 2.57

Request: Using the record for `CCCN(CCC)CCCOc1ccc(-c2csc(-c3ccccc3)n2)cc1` , report its log10(IC50).
Response: 2.36

Request: Item `CCCCN(CCCC)CCCOc1ccc(/C=C/c2nc3ccccc3s2)cc1` has what recorded log10(IC50)?
Response: 2.40

Request: Field request: log10(IC50) | item: `C(=C\c1nc2ccccc2o1)/c1ccc(OCCCCn2ccnc2)cc1`
Response: 2.43

Request: # lookup: log10(IC50) of `CCCCN(CCCC)CCCOc1ccc(-c2nc(-c3ccccc3)sc2CC)cc1`
Response: 2.53

Request: Any idea what log10(IC50) was measured for `CCCCN(CCCC)CCOc1ccc(-c2csc(-c3ccccc3)n2)cc1` ?
Response: 2.49

Request: // lookup log10(IC50) for `CCCCN(CCCC)CCCCOc1ccc(-c2csc(-c3ccccc3)n2)cc1`
Response: 2.11

Request: May I ask what log10(IC50) has been recorded for `CNC(=C[N+](=O)[O-])NCCSCc1ccc(CN(C)C)o1` ?
Response: 1.60

Request: Which value of log10(IC50) has been reported for `CCCN(CCC)CCCCOc1ccc(/C=C/c2nc3ccccc3s2)cc1.Cl.O` in the records?
Response: 1.48

Request: Fill in the blank: the reported log10(IC50) of `c1cncc(-c2nc(-c3ccc(OCCCn4ccnc4)cc3)cs2)c1` is ____.
Response: 3.52

Request: Please look up its log10(IC50): `c1ccc(-c2nc(-c3ccc(OCCCN4CCCCC4)cc3)cs2)cc1`
Response: 2.04

Request: Returns the measured log10(IC50) for the input compound. Input: `CCCCN(CCCC)CCCOc1ccc(-c2nc3ccccc3s2)cc1`
Response: 2.40

Request: Give the measured log10(IC50) of `c1ccc(-c2nc(-c3ccc(OCCCN4CCCC4)cc3)cs2)cc1` .
Response: 2.59

Request: Request the reported log10(IC50) associated with `CCCCN(CCCC)CCCOc1ccc(/C=C/c2nc3cc(C)ccc3s2)cc1`
Response: 2.46

Request: Suppose we examine the compound `CCCCN(CCCC)CCCOc1ccc(/C=C/c2nc3ccc(OC)cc3o2)cc1` ; what log10(IC50) value has been reported?
Response: 1.90

Request: I would be grateful if you could share the reported log10(IC50) for `CCCCN(CCCC)CCCOc1ccc(-c2csc(C)n2)cc1` .
Response: 3.18

Request: Name the recorded log10(IC50) for `C(=C\c1nc2ccccc2o1)/c1ccc(OCCCCCn2ccnc2)cc1` .
Response: 2.45

Request: Value lookup for log10(IC50); key = `FC(F)(F)c1ccc(-c2nc(-c3ccc(OCCCn4ccnc4)cc3)cs2)cc1`
Response: 2.57
